Biological target: full-length beta-Catenin (Uniprot ID P35222) (Homo sapiens (Human)) (UniProt P35222)
Sequence (P35222 whole entry): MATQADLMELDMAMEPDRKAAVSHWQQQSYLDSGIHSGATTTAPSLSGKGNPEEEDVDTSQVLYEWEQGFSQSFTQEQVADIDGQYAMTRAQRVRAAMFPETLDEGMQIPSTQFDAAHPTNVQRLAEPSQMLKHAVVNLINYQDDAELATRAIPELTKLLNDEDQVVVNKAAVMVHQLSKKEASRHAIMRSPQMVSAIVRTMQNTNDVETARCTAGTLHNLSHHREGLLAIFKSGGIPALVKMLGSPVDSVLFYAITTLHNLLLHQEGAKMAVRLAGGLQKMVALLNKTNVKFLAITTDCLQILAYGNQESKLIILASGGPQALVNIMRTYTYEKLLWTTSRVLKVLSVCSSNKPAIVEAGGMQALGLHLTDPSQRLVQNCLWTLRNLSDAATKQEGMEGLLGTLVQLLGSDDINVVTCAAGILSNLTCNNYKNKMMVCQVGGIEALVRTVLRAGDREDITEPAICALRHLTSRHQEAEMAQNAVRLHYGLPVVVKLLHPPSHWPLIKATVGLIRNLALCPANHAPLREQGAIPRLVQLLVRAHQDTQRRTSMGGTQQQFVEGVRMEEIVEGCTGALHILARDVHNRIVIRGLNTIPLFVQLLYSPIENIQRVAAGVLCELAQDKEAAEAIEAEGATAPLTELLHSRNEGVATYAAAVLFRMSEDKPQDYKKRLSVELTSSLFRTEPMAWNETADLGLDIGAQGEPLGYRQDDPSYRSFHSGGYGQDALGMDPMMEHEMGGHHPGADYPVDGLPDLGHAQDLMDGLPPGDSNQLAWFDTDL
Test: fluorescence polarization competition; full-length beta-catenin, 5FAM-TCF4 10-53 probe as competitor
Starred links: 1 amine or outer side, 2 acyl side, 3 side chain; linkers in the order of their positions; H or OH if unused. Positions of bridges follow the written chain, without caps; N, C: chain ends. Non-standard residues stand in square brackets, D forms with d. Primed or numbered codes have the meaning given here. PyrS2″ = (S)-3-amino-1-((pent-4-en-1-yloxy)carbonyl)pyrrolidine-3-carboxylic acid (stapling residue), C=CCCCOC(=O)N1CC[C@@](N[*:1])(C(=O)[*:2])C1; PyrS2 = (S)-3-amino-1-((pent-4-en-1-yloxy)carbonyl)pyrrolidine-3-carboxylic acid, C=CCCCOC(=O)N1CC[C@@](N[*:1])(C(=O)[*:2])C1; SPip2 = 4-amino-1-((pent-4-en-1-yloxy)carbonyl)piperidine-4-carboxylic acid, C=CCCCOC(=O)N1CCC(N[*:1])(C(=O)[*:2])CC1; SPip3 = 4-amino-1-((hex-5-en-1-yloxy)carbonyl)piperidine-4-carboxylic acid, C=CCCCCOC(=O)N1CCC(N[*:1])(C(=O)[*:2])CC1; SPip1 = 4-amino-1-((but-3-en-1-yloxy)carbonyl)piperidine-4-carboxylic acid, C=CCCOC(=O)N1CCC(N[*:1])(C(=O)[*:2])CC1; B5(25) = 2-amino-2-(pent-4-en-1-yl)hept-6-enoic acid (stitching residue), C=CCCCC(CCCC=C)(N[*:1])C(=O)[*:2]; B5 = 2-amino-2-(pent-4-en-1-yl)hept-6-enoic acid, C=CCCCC(CCCC=C)(N[*:1])C(=O)[*:2]; Phe(3-COOH) = N[C@@H](Cc1cccc(C(=O)O)c1)C(=O)O; Phe(2-CF3) = N[C@@H](Cc1ccccc1C(F)(F)F)C(=O)O; Bta = N[C@@H](Cc1csc2ccccc12)C(=O)O; αAllylPro = C=CC[C@@]1(C(=O)O)CCCN1; tBuAla = CC(C)(C)C[C@H](N)C(=O)O; 3Thi = N[C@@H](Cc1ccsc1)C(=O)O; Aib = CC(C)(N)C(=O)O
I'd appreciate it if you could supply IC50 values for the items below.
Reply numerically in nM, unit not repeated.

Query string: Entry Ac-[αAllylPro]D[tBuAla][B5]D[Phe(3-COOH)][Aib]AFK(Ac)[PyrS2][3Thi][Bta]AA-NH2 (staple 1-4, 4-11; not fully specified; printed as Ac-PL3-Asp-Npg-B5-Asp-3COOHF-Aib-Ala-Phe-AcLys-PyrS2-3Thi-BztA-Ala-Ala-NH2) [I-2578] needs its IC50 filled in; supply it.
Result string: 5

Query string: Entry Ac-[αAllylPro]D[tBuAla][B5]D[Phe(3-COOH)]QAFL[SPip3][Phe(2-CF3)][Bta]A-NH2 (staple 1-4, 4-11; not fully specified; printed as Ac-PL3-Asp-Npg-B5-Asp-3COOHF-Gln-Ala-Phe-Leu-SPip3-2F3MeF-BztA-Ala-NH2) [I-2587] needs its IC50 filled in; supply it.
Result string: 273

Query string: Entry Ac-[αAllylPro]D[tBuAla][B5]D[Phe(3-COOH)]QAFL[SPip1][Phe(2-CF3)][Bta]A-NH2 (staple 1-4, 4-11; not fully specified; printed as Ac-PL3-Asp-Npg-B5-Asp-3COOHF-Gln-Ala-Phe-Leu-SPip1-2F3MeF-BztA-Ala-NH2) [I-2584] needs its IC50 filled in; supply it.
Result string: 1840

Query string: Entry Ac-[αAllylPro]D[tBuAla][B5(25)]D[Phe(3-COOH)][Aib]AF[dS][PyrS2″][3Thi][Bta][dS]A-NH2 (staple 1-4, 4-11 (inferred); not fully specified; printed as Ac-PL3-Asp-Npg-B5-Asp-3COOHF-Aib-Ala-Phe-dSer-PyrS2-3Thi-BztA-dSer-Ala-NH2) [I-2576] needs its IC50 filled in; supply it.
Result string: 6

Query string: Entry Ac-[αAllylPro]D[tBuAla][B5(25)]D[Phe(3-COOH)][Aib]AFS[PyrS2″][3Thi][Bta]SA-NH2 (staple 1-4, 4-11 (inferred); not fully specified; printed as Ac-PL3-Asp-Npg-B5-Asp-3COOHF-Aib-Ala-Phe-Ser-PyrS2-3Thi-BztA-Ser-Ala-NH2) [I-2577] needs its IC50 filled in; supply it.
Result string: 7

Query string: Entry Ac-[αAllylPro]D[tBuAla][B5]D[Phe(3-COOH)]QAFL[SPip2][3Thi][Bta]A-NH2 (staple 1-4; staple 4-11 (inferred); also: earlier-eluting HPLC staple isomer composition) [I-2592] needs its IC50 filled in; supply it.
Result string: 37
